# system-under-test: Ubiquitin-activating enzyme e1, putative (Leishmania donovani (strain BPK282A1))
# experiment-summary: Leishmania donovani Ubiquitin Activating Enzyme (LdE1)
# Assay type: functional
# Design: scale not given: direction of the effect not stated beside the values
# run-conditions: 30 µM
Results with a measured potency or affinity are listed apart.
Overview of reported Percent Effect across a group of compounds:
Field format: number, assumed %, no unit text.

Recorded results for 5 compounds are shown here.
# input Quick one: Percent Effect of CCOC(=O)NC(CNC(=O)CCc1ccccn1)CC(C)C (configuration not stated) ?
# output 0

# input Then CCN1CCN(C(=O)c2nc(C)n(-c3ccccc3Cl)n2)CC1 ?
# output 7.89

# input Then CC(CN1CCCC1)C(=O)N1CCC(c2nccn2CC2CC2)CC1 (configuration not stated) ?
# output 13.5

# input Then Cc1cnc(NC(=O)N2CCCC2)s1 ?
# output 2.7

# input Then Cc1cc(C2CCCN(C(=O)CN3CCN(C)CC3)C2)n[nH]1 (configuration not stated) ?
# output 13.5

Let's switch to this compound now.
# input Quick one: Percent Effect of CC(=O)N1CCCCC1c1nc2c(c(N3CCCCC3)n1)CN(C)CC2 (configuration not stated) ?
# output -9.46

* * *

# system-under-test: Proteasome subunit beta (Trypanosoma cruzi) (UniProt O96673)
# experiment-summary: Trypanosoma cruzi proteasome chymotrypsin-like activity (TcProtChymo) assay. Also: in the data most compounds retested in dose-response had high values.
# Format: functional
# Set-up: scale not given: direction of the effect not stated beside the values
# run-conditions: 9.37 µM
Would you please tag the item YES when its Percent Effect is 10% or above, and NO when it is below?

See these solved cases before continuing.
# input Please check the record CCc1cnc(CN2CCCC2c2noc(C3CC3)n2)o1 (centres undefined) and state if its Percent Effect is at or above 10%.
# output YES

# input Then CC(C)(C)C(=O)NCCC(=O)NC(C)(C)c1ccc2c(c1)OCCO2 ?
# output NO

# input Then CN(Cc1ccco1)C(=O)[C@H]1CSCN1C(=O)OC(C)(C)C ?
# output NO

# input Then CCCOCCN1CCC2(CC1)CC(c1ccccc1)C(=O)N2C (centres undefined) ?
# output YES

# input Then Cc1nc(C(C)C)sc1C(=O)NS(=O)(=O)c1ccc(C#N)cc1 ?
# output YES

New cases:
# input Please check the record COc1ccc(-n2ccc(C(=O)N3CCN(C)CC3C)n2)cc1 (centres undefined) and state if its Percent Effect is at or above 10%.
# output NO

# input Then Cc1nccc(-c2cccc(NCC(=O)N3CCNC3=O)c2)n1 ?
# output YES

# input Then Nc1ncc2c(n1)CN(C1CCCC1)C2=O ?
# output YES

* * *

# system-under-test: Arginase-2, mitochondrial (Homo sapiens)
# Sequence (whole entry): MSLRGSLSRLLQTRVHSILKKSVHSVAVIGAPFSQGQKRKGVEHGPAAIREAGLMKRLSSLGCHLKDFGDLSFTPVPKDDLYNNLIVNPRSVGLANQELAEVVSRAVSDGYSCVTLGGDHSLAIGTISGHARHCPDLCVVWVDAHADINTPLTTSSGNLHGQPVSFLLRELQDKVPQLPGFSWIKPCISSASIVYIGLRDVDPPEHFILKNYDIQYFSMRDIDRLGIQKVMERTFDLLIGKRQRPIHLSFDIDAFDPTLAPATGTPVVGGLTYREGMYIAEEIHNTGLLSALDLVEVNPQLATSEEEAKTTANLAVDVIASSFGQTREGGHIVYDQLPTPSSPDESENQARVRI
# experiment-summary: in vitro enzyme assay to detect the production of urea directly proportional to the activity of Arginase II; also: in the data most compounds retested in dose-response had high values
# Type: functional
# Design: scale not given: direction of the effect not stated beside the values
# run-conditions: 33.3 µM
Overview of reported Percent Effect across a group of compounds:
Field format: number, assumed %, no unit text.

# input Quick one: Percent Effect of O=C(CCc1nc2cccnc2[nH]1)NCc1ccc2c(c1)OCO2 ?
# output -10.4

New cases:
# input Quick one: Percent Effect of COc1ccccc1CNC(=O)C1=NN(c2ccc(C)cc2)C(=O)CN1 ?
# output -0.248

# input Then O=C(c1cccc(CN2CCCC2)c1)N1CCCC(n2cncn2)C1 (stereo not given) ?
# output -10

# input Then O=C(C1=CC2(CCNCC2)c2ccccc21)N1CCCC1 ?
# output -56.1

* * *

# system-under-test: Proteasome subunit beta (Trypanosoma cruzi) (UniProt O96673)
# Sequence (whole entry): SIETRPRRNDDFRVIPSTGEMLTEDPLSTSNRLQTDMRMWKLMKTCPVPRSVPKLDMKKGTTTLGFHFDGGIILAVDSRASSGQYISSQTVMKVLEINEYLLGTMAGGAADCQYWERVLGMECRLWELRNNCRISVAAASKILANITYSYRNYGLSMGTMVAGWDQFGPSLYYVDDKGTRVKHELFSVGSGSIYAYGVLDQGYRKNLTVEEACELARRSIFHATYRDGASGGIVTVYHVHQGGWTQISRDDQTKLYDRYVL
# experiment-summary: Trypanosoma cruzi proteasome chymotrypsin-like activity (TcProtChymo) assay. Also: in the data most compounds retested in dose-response had high values.
# Type: functional
# Design: scale not given: direction of the effect not stated beside the values
# run-conditions: 9.37 µM
Could you please mark Fulfilled for values of Percent Effect below 6% and Not fulfilled for values at or above it?

# input Answer whether the compound CNC(=O)CCc1cc(C)nc(C2CCCN2)n1 (stereo unspecified) has Percent Effect strictly less than 6%
# output Fulfilled

# input Then CC(=O)N1CCCC1c1nnc2n1CCCCC2 (stereo unspecified) ?
# output Not fulfilled

# input Then O=C(NC[C@]12COC[C@H]1CN(Cc1nccs1)C2)N1CCCC1 ?
# output Not fulfilled

# input Then COc1ccc(CCNC(=O)C2CCC(Cn3cnnn3)CC2)cc1 (stereo unspecified) ?
# output Fulfilled

# input Then COc1cccc(CNC(=O)CN2CCCCC2Cn2cccn2)c1 (stereo unspecified) ?
# output Fulfilled

* * *

Overview of reported Percent Effect across a group of compounds:
# system-under-test: AMP-activated protein kinase, AMPK (Homo sapiens) (UniProt P54646+O43741+P54619+Q9UGJ0+Q9Y478+Q13131+Q9UGI9)
# experiment-summary: AMP-dependent Kinase enzyme assay. An in vitro enzyme assay that detects ADP turnover that is directly proportional to AMPK activity. This uses naive AMPK that is activated during the assay with MK-8722
# Type: functional
# Design: scale not given: direction of the effect not stated beside the values
# run-conditions: 30 µM
Field format: number, assumed %, no unit text.

Recorded results for 8 compounds are shown here.
# input Quick one: Percent Effect of O=C(COc1cccc2c1CCC2=O)NCCSc1ccccc1 ?
# output 7.61

# input Then CN(CCc1ccccc1)Cc1cc(C(=O)N2CCN(C)C(=O)C2)no1 ?
# output -1.8

# input Then COCCOc1ccccc1C(=O)N1CCCCC1c1nccs1 (configuration not stated) ?
# output -31.5

# input Then Cc1cc(C(=O)N2CCC(c3nccn3Cc3ccncc3)CC2)no1 ?
# output 5.77

# input Then O=C(c1cccnc1)N1C[C@@H]2CC[C@H](C1)N(Cc1cccc(Cl)c1F)C2 ?
# output 11.4

# input Then Cc1cc(C[C@@H]2COC[C@@H]2NC(=O)Cn2c(=O)oc3ccccc32)on1 ?
# output 1.35

# input Then Cc1noc(NC(=O)c2ccc(Br)cc2)n1 ?
# output -4.88

# input Then Cc1nc(C)n(CC2CN(c3nnc(C)c(C)c3C#N)CCO2)n1 (configuration not stated) ?
# output 1.44

New cases:
# input Quick one: Percent Effect of c1csc(-c2noc(CCCN3CCCC3Cn3cccn3)n2)c1 (configuration not stated) ?
# output -5.55

# input Then O=C(c1ccco1)N1CCOCC2(C1)CN(c1ccccc1)C(=O)CO2 (configuration not stated) ?
# output 5.75

# input Then COc1ccc(C2Nc3ccccc3C3=NCCCN32)cc1OC (configuration not stated) ?
# output 8.31

# input Then CCc1ccc(C(=O)N2CCN(CCS(C)(=O)=O)CC2)o1 ?
# output 3.96

# input Then COCCN1CCC2(CCCN(C(=O)c3cnoc3C)C2)C1=O (configuration not stated) ?
# output 3.34

* * *

Overview of reported Percent Effect across a group of compounds:
# Test system: Trypanosoma cruzi
# experiment-summary: Trypanosoma cruzi phosphomannomutase and mannose-1-phosphate guanylyltransferase assay
# Format: functional
# Parameters: scale not given: direction of the effect not stated beside the values
# run-conditions: 10 µM
Field format: number, assumed %, no unit text.

Recorded results for 2 compounds are shown here.
# input Quick one: Percent Effect of Cc1cnn(CCNCC(=O)NCCOc2ccccc2)c1 ?
# output -5.88

# input Then Clc1snnc1CN1CCCC(Cn2cncn2)C1 (stereo not drawn) ?
# output 1.98

New cases:
# input Quick one: Percent Effect of COCCN1CCC(NCc2ccc(C#N)cc2)C1 (stereo not drawn) ?
# output 9.55

# input Then CC(C)Oc1ccccc1C1CC(=O)Nc2c1cnn2C (stereo not drawn) ?
# output -3.21

* * *

# system-under-test: Tyrosyl-tRNA synthetase, putative (Trypanosoma cruzi (strain CL Brener)) (UniProt Q4DSP6)
# Sequence (whole entry): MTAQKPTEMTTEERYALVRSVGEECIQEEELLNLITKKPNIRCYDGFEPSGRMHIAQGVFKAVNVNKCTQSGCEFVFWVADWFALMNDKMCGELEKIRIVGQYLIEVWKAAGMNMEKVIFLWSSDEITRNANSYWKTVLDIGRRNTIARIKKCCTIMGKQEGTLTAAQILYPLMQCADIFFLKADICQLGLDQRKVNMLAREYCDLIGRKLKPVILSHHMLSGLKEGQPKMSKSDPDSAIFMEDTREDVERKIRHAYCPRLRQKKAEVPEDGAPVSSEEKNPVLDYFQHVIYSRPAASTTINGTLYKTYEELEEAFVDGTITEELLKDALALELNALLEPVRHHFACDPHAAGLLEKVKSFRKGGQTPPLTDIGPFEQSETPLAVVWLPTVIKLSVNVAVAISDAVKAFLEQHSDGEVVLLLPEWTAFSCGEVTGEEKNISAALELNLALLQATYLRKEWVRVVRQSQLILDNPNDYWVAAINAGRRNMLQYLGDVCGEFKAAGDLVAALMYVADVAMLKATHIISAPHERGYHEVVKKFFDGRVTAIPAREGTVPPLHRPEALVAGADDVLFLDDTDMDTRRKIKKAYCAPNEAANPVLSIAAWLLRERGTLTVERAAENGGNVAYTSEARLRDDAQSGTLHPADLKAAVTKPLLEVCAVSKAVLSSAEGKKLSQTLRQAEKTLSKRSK
# experiment-summary: Trypanosoma cruzi tyrosyl tRNA synthetase (TcYRS) SOP
# Type: functional
# Set-up: scale not given: direction of the effect not stated beside the values
# run-conditions: 30 µM
measured-endpoint: Percent Effect (%)
Field format: number, assumed %, no unit text.

Recorded results for 5 compounds are shown here.
# input Quick one: Percent Effect of O=S(=O)(NCC1CCOc2ccccc2C1)N1CCOCC1 (stereo unspecified) ?
# output 13.6

# input Then Cc1ccc2c(n1)N(C)CCN(C(=O)NC1CC1)C2 ?
# output 5

# input Then O=C(NCC(Cc1cccc(F)c1)N1CCCC1=O)c1cnccn1 (stereo unspecified) ?
# output 5

# input Then COc1c(C2CCCN2Cc2cc(C)no2)c(C)nn1C (stereo unspecified) ?
# output 11

# input Then Cc1cc(C(=O)N2CCCCC2C)ccc1NCC(=O)N1CCOCC1 (stereo unspecified) ?
# output 24.4

New cases:
# input Quick one: Percent Effect of CCc1n[nH]c(C2CN(Cc3nccn3CC)CCO2)n1 (stereo unspecified) ?
# output 25.9

# input Then O=C(c1ccc[nH]1)N1CCCC2(CCN(c3ccsc3)C2=O)C1 (stereo unspecified) ?
# output -3.85

# input Then CCN(C)c1ncnc2c1CCN(Cc1csc(C)n1)CC2 ?
# output 15.4

# input Then COC(CNC(=O)N1CCC(n2cncn2)CC1)c1ccccc1 (stereo unspecified) ?
# output 2.53

# input Then CS(=O)(=O)NCc1nnc2n1CCN(CC1CC1)C2 ?
# output 12.8
